Target: T1, HCoV-229E spike antigens (bead panel) (HCoV-229E, UniProt P15423 16-1115)
T1 sequence: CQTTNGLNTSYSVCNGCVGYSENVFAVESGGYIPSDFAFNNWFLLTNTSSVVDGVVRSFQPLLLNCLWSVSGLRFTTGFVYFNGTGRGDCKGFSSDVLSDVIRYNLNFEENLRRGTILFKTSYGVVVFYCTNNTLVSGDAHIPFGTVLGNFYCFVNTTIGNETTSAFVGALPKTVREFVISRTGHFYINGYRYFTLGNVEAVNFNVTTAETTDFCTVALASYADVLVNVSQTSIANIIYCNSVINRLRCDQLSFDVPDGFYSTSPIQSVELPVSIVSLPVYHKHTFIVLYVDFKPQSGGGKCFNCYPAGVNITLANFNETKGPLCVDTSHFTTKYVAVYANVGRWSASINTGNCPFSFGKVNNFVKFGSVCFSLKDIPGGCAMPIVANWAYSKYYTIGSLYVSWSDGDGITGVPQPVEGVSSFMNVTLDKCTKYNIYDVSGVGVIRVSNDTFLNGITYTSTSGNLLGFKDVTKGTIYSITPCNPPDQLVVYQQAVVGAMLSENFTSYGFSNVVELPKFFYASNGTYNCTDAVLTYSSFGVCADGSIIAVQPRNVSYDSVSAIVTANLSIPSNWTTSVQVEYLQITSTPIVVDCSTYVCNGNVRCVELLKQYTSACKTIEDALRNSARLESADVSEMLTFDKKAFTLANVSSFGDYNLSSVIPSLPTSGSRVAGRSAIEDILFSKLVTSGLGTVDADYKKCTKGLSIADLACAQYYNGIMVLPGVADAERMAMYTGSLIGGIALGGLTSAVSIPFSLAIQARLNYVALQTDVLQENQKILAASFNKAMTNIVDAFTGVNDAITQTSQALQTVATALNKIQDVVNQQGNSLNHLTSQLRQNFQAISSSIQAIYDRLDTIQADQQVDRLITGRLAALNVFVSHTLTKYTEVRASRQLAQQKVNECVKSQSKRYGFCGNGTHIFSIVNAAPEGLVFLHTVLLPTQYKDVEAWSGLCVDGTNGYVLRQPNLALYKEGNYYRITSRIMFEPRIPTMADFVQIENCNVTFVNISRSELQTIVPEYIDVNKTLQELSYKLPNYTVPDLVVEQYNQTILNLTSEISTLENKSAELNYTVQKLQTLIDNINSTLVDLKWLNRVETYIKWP
Experiment: multiplex bead assay
ASSAY_ENDPOINT: binding result

COV_1145 (antibody, V domains shown, human IgG1) VH: QVQLVESGGGVVQPGRSLRLSCAASGFTFSSYGMHWVRQAPGKGLEWVAVIWYDGSNKYYADSVKGRFTISRDNSKNTLYLQMNSLRVEDTAVYYCAREGQLGATGLDCWGQGTLVSVSS VL: SYELTQPPSVSVSPGQTARITCSGDALPKKYAYWYQQKSGQAPVLVIYEDSKRPSGIPERFSGSSSGTMATLTISGAQVEDEADYYCYSTDNSGNHWVFGGGTKLTVLG; no binding
COV_3069 (antibody, V domains shown, human IgG1) VH: EVQLVESGGGLVKPGGSLRLSCAASGFTFGSYTMNWVRQAPGKGLEWVSSIDTTSSSIYYADSLKGRFAISRDSAKNSLYLQMNRLRAEDTAVYYCARGNGHSYDSSGYHYGMYFDYWGQGTLVTVSS VL: DIQMTQSPSTLSASVGDRVTITCRASQSISRWLAWYQQKPGKAPKLLIYEVSSLENGVPSRFSGSRSGTEFTLTISSLQPDDFAIYYCQQYNTYSRTFGQGTKVEIKR; no binding

These entries and their values trace back to patent US20240101645A1.
